Target: human recombinant H-PGDS (Homo sapiens, UniProt O60760)
Sequence (O60760 whole entry): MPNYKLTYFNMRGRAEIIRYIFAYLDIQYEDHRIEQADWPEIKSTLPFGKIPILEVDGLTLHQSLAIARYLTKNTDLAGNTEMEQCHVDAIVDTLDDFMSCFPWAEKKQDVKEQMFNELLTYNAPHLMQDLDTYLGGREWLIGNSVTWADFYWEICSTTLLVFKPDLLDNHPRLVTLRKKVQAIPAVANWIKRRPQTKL
Test: Fluorescence intensity h-PGDS TBA enzyme assay
Format: biochemical
Details: Examples up to 622 (and 3a, 3b)
measured property: IC50 (nM)

The cases that follow already have their IC50 on record.
> print(dat)
                                   compound  observed
1  CC(CC1(C)CC1)N1CCC(NC(=O)c2ccc(-c3cccc(F)c3)nc2)CC1 (centres unmarked) [Example 529]       2.5
2  C=C(C)CN(C)C(=O)c1ccc(N2CCC(NC(=O)c3ccc(-c4cccc(F)c4)nc3)CC2)nc1 [Example 562]      1.74
3  COCCCNc1nccc(CN2CCC(NC(=O)c3ccc(-c4cccc(F)c4)nc3)CC2)n1 [Example 391]       1.2
4  Cc1cccc(-c2ccc(C(=O)NC3CCN(Cc4ccccc4)CC3)cn2)c1 [Example 23]      1.72
5  COCc1cc(N2CCC(NC(=O)c3ccc(-c4cccc(F)c4)nc3)CC2)nc(-c2csc(C)n2)n1 [Example 73]      2.89

I. O=C(NC1CCN(c2ccc(C(=O)N3CCOCC3)cn2)CC1)c1ccc(-c2cccc(F)c2)nc1 [Example 50]
II. CC(=O)NC1CCC(N2CCC(NC(=O)c3ccc(-c4cccc(F)c4)nc3)CC2)CC1 (centres unmarked) [Example 546]
III. COC(=O)c1ccc2c(CN3CCC(NC(=O)c4ccc(-c5cccc(F)c5)nc4)CC3)c[nH]c2c1 [Example 265]
IV. O=C(NC1CCN(Cc2cccnc2OCC2CC2)CC1)c1ccc(-c2cccc(F)c2)nc1 [Example 462]
V. O=C(NC1CCN(c2ncnc3cc(F)ccc23)CC1)c1ccc(-c2cccc(F)c2)nc1 [Example 117]
IN: Output the entries ranked by IC50 from maximum down to minimum. Give the labels in the order requested.
OUT: III, II, I, V, IV
(III: 4.29 nM, II: 2.83 nM, I: 0.681 nM, V: 0.429 nM, IV: 0.264 nM)

1. O=C(NC1CCN(CC2=C(Cl)c3cc(F)ccc3OC2)CC1)c1ccc(-c2cccc(F)c2)nc1 [Example 309]
2. CCn1cnc2c(N3CCC(NC(=O)c4ccc(-c5cccc(F)c5)nc4)CC3)ncnc21 [Example 57]
3. O=C(NC1CCN(Cc2ccc(-n3nccn3)cc2)CC1)c1ccc(-c2cccc(F)c2)nc1 [Example 493]
IN: Arrange these 3 compounds in increasing order of IC50. Give the labels in the order requested.
OUT: 2, 3, 1

1. Cc1cc(C)c(C#N)c(N2C[C@@H](O)[C@H](NC(=O)c3ccc(-c4cccc(F)c4)nc3)C2)n1 (relative stereo) [Example 615]
2. CCc1csc(CN2CCC(NC(=O)c3ccc(-c4cccc(F)c4)nc3)CC2)n1 [Example 411]
3. COc1ccc2c(N3CCC(NC(=O)c4ccc(-c5cccc(F)c5)nc4)CC3)ncnc2c1 [Example 52]
IN: Arrange these 3 compounds in increasing order of IC50. Give the labels in the order requested.
OUT: 3, 2, 1

====

Target: human recombinant H-PGDS (Homo sapiens)
Test: Fluorescence intensity h-PGDS TBA enzyme assay
Format: biochemical
Conditions: Examples up to 622 (and 3a, 3b)
measured property: IC50 (nM)

> print(dat)
                                item.smiles  measured.property  observed
1  CC(C)(O)c1ccc(CN2CCC(NC(=O)c3ccc(-c4cccc(F)c4)nc3)CC2)c(F)c1               IC50      1.03

a. CC(=O)c1cc(C#N)c(N2CCC(NC(=O)c3ccc(-c4cccc(F)c4)nc3)CC2)nc1C
b. CCOC(=O)c1cccnc1N1CCC(NC(=O)c2ccc(-c3cccc(F)c3)nc2)CC1
IN: Lower value for measured IC50? Options: a , b Respond with the label that goes with your answer.
OUT: b
